- test_method_notes: Cytotoxicity against human MRC5 cells assessed as dehydrogenase activity after 24 hrs by […]
- Assay type: cell-based
- condition_label: read-out: LC50

given_smiles	result_modifier	CC50 at 24 h / µM
CCCCCC[C@@H](NC(=O)[C@H](N)CCCCN)C(=O)N[C@H](C)C(=O)N[C@H](CCCCN)C(=O)N[C@H](CCCCCC)C(=O)N[C@H](C)C(=O)N[C@H](CCCCN)C(=O)N[C@H](CCCCN)C(=O)N[C@H](CCCCCC)C(=O)N[C@H](C)C(=O)N[C@H](CCCCN)C(=O)N[C@H](CCCCCC)C(=O)N[C@H](C)C(=O)N[C@H](CCCCN)C(=O)O	=	2.8
CC(C)C[C@@H](NC(=O)[C@H](N)CCCCN)C(=O)N[C@H](C)C(=O)N[C@H](CCCCN)C(=O)N[C@H](CC(C)C)C(=O)N[C@H](C)C(=O)N[C@H](CCCCN)C(=O)N[C@H](CCCCN)C(=O)N[C@H](CC(C)C)C(=O)N[C@H](C)C(=O)N[C@H](CCCCN)C(=O)N[C@H](CC(C)C)C(=O)N[C@H](C)C(=O)N[C@H](CCCCN)C(=O)O	>	200
C[C@@H](NC(=O)[C@@H](CC1CCCCC1)NC(=O)[C@H](N)CCCCN)C(=O)N[C@H](CCCCN)C(=O)N[C@H](CC1CCCCC1)C(=O)N[C@H](C)C(=O)N[C@H](CCCCN)C(=O)N[C@H](CCCCN)C(=O)N[C@H](CC1CCCCC1)C(=O)N[C@H](C)C(=O)N[C@H](CCCCN)C(=O)N[C@H](CC1CCCCC1)C(=O)N[C@H](C)C(=O)N[C@H](CCCCN)C(=O)O	=	5.8

---

Entries and their measured Activity follow.
- test_method_notes: Toxicity in human RBC assessed as minimum drug level required for 10% hemolysis after 2 hrs
- Assay type: cell-based
- condition_label: erythrocyte

compound	Activity
CC(C)CC(NC(=O)C(N)CCCCN)C(=O)NC(C)C(=O)NC(CCCCN)C(=O)NC(CC(C)C)C(=O)NC(C)C(=O)NC(CCCCN)C(=O)NC(CCCCN)C(=O)NC(CC(C)C)C(=O)NC(C)C(=O)NC(CCCCN)C(=O)NC(CC(C)C)C(=O)NC(C)C(=O)NC(CCCCN)C(=O)O (racemic)	> 100 µM
CC(NC(=O)C(CC1CCCCC1)NC(=O)C(N)CCCCN)C(=O)NC(CCCCN)C(=O)NC(CC1CCCCC1)C(=O)NC(C)C(=O)NC(CCCCN)C(=O)NC(CCCCN)C(=O)NC(CC1CCCCC1)C(=O)NC(C)C(=O)NC(CCCCN)C(=O)NC(CC1CCCCC1)C(=O)NC(C)C(=O)NC(CCCCN)C(=O)O (racemic)	> 100 µM
CC(C)C[C@@H](NC(=O)[C@H](N)CCCCN)C(=O)N[C@H](C)C(=O)N[C@H](CCCCN)C(=O)N[C@H](CC(C)C)C(=O)N[C@H](C)C(=O)N[C@H](CCCCN)C(=O)N[C@H](CCCCN)C(=O)N[C@H](CC(C)C)C(=O)N[C@H](C)C(=O)N[C@H](CCCCN)C(=O)N[C@H](CC(C)C)C(=O)N[C@H](C)C(=O)N[C@H](CCCCN)C(=O)O	> 100 µM

---

- test_method_notes: Toxicity in mouse liver mitochondria assessed as minimum drug level required for mitochondrial disruption
- condition_label: in vitro
Entries and their measured Activity follow.

compound	units_label	Activity
CC(C)CC(NC(=O)C(N)CCCCN)C(=O)NC(C)C(=O)NC(CCCCN)C(=O)NC(CC(C)C)C(=O)NC(C)C(=O)NC(CCCCN)C(=O)NC(CCCCN)C(=O)NC(CC(C)C)C(=O)NC(C)C(=O)NC(CCCCN)C(=O)NC(CC(C)C)C(=O)NC(C)C(=O)NC(CCCCN)C(=O)O (racemic)	µM	200
C[C@@H](NC(=O)[C@@H](CC1CCCCC1)NC(=O)[C@H](N)CCCCN)C(=O)N[C@H](CCCCN)C(=O)N[C@H](CC1CCCCC1)C(=O)N[C@H](C)C(=O)N[C@H](CCCCN)C(=O)N[C@H](CCCCN)C(=O)N[C@H](CC1CCCCC1)C(=O)N[C@H](C)C(=O)N[C@H](CCCCN)C(=O)N[C@H](CC1CCCCC1)C(=O)N[C@H](C)C(=O)N[C@H](CCCCN)C(=O)O	µM	1.3
CCCCCCC(NC(=O)C(N)CCCCN)C(=O)NC(C)C(=O)NC(CCCCN)C(=O)NC(CCCCCC)C(=O)NC(C)C(=O)NC(CCCCN)C(=O)NC(CCCCN)C(=O)NC(CCCCCC)C(=O)NC(C)C(=O)NC(CCCCN)C(=O)NC(CCCCCC)C(=O)NC(C)C(=O)NC(CCCCN)C(=O)O (racemic)	µM	3.1
CC(NC(=O)C(CC1CCCCC1)NC(=O)C(N)CCCCN)C(=O)NC(CCCCN)C(=O)NC(CC1CCCCC1)C(=O)NC(C)C(=O)NC(CCCCN)C(=O)NC(CCCCN)C(=O)NC(CC1CCCCC1)C(=O)NC(C)C(=O)NC(CCCCN)C(=O)NC(CC1CCCCC1)C(=O)NC(C)C(=O)NC(CCCCN)C(=O)O (racemic)	µM	6.3
